The measured values listed here are drawn from the METLIN SMRT retention time set (Domingo-Almenara et al. 2019).

# Test name: gradient 5% acetonitrile 3 min, to 50% in 2 min, to 85% in 15 min, held 3 min, 100 µL/min
# Setup conditions: column: Zorbax Extend-C18 2.1 x 50 mm; eluents: water / acetonitrile, 0.1% formic acid
Would you mind telling me the reported RP-LC retention time of each entry?
Numbers only; they are read as s.

Notebook: COc1ccc(NC(=O)N2CCC3(CC2)NC(=O)c2ccccc2O3)cc1 , RP-LC retention time read as 712

Notebook: Cc1nc(-c2cc(S(=O)(=O)NC(C)Cc3ccco3)c(C)s2)sc1C (centres undefined) , RP-LC retention time read as 1060

Notebook: COc1ccc(-c2nc3cnccn3c2Nc2ccccc2C)cc1OC , RP-LC retention time read as 793

Notebook: CCn1cc(-c2nc(C)c(C(=O)Nc3ccc(OC)cc3OC)s2)c2cccnc21 , RP-LC retention time read as 1050

Notebook: O=C(C1CCN(c2cc(N3CCCCC3)ncn2)CC1)N1CCSCC1 , RP-LC retention time read as 628

Notebook: CCCn1cc(CCNC(=O)Nc2cc(Cl)ccc2Cl)c2cccnc21 , RP-LC retention time read as 963

Notebook: O=C1c2ccccc2C(=O)N1c1ncn[nH]1 , RP-LC retention time read as 667

Notebook: CCCn1cc(C2=CCN(C(=O)NCc3ccc(OC)cc3)CC2)c2cccnc21 , RP-LC retention time read as 888

Notebook: CCCN(CCC)C(=O)C1CCC(=O)N1S(=O)(=O)c1ccc(C)cc1 (centres undefined) , RP-LC retention time read as 943

Notebook: O=C(Nc1ccccc1)[C@@H]1OCCN(C2CC2)[C@H]1c1ccccc1 , RP-LC retention time read as 668

Notebook: O=C(c1cccs1)N1CCCC(c2ccnc(-c3ccccc3)n2)C1 (centres undefined) , RP-LC retention time read as 1020

Notebook: COCCNC(=O)Cn1cccc1-c1nc(-c2ccc(Cl)cc2)cs1 , RP-LC retention time read as 988

Notebook: CCn1cc(-c2nc(C(=O)Nc3ccc(Cl)cc3F)cs2)c2cccnc21 , RP-LC retention time read as 1350

Notebook: Cc1ccn(-c2ccc(C(=O)NC3CCCC3)cn2)n1 , RP-LC retention time read as 815

Notebook: CCC(=O)N(C)CCc1noc(-c2ccc(C(=O)NC3CCCCCC3)cc2)n1 , RP-LC retention time read as 794

Notebook: Cc1cc(C(=O)NCCOc2ccc3nnc(-c4ccccc4)n3n2)c(C)o1 , RP-LC retention time read as 698

Notebook: CCOC(=O)N1CCc2nc(NC(=O)c3ccc([N+](=O)[O-])s3)sc2C1 , RP-LC retention time read as 792

Notebook: CCCn1c(=O)sc2cc(S(=O)(=O)N3CCC(C(=O)N(C)Cc4ccccc4)CC3)ccc21 , RP-LC retention time read as 985

Notebook: CCCn1c(=O)sc2cc(S(=O)(=O)N3CCC(C(=O)Nc4ccc(C)cn4)CC3)ccc21 , RP-LC retention time read as 808

Notebook: CCn1c(C(=O)N2CCN(c3cccc(OC)c3)CC2)cc2sccc21 , RP-LC retention time read as 1050

Notebook: CCc1nc2c(c(=O)n1CC(=O)NCc1ccccc1F)CN(Cc1ccccc1)CC2 , RP-LC retention time read as 649

Notebook: CCC(C)NC(=O)Cn1c(=O)c(=O)n(CC)c2ncccc21 (centres undefined) , RP-LC retention time read as 618

Notebook: CN(C1CCc2nn(CC3CC3)c(=O)n2CC1)S(=O)(=O)c1cccc(Cl)c1 (centres undefined) , RP-LC retention time read as 818

Notebook: CCNC(=O)c1nn(-c2ccc(OC)c(OC)c2)c(OC)cc1=O , RP-LC retention time read as 626

Notebook: COc1ccc(N2CCN(C(=O)c3sc4cccc(F)c4c3OC)CC2)cc1 , RP-LC retention time read as 998

Notebook: CCN(Cc1ccccc1)S(=O)(=O)c1ccc2c(c1)CCCC(=O)N2 , RP-LC retention time read as 856

Notebook: CCc1ccc(-c2noc(-c3nnn(Cc4nc(-c5ccccc5OC)oc4C)c3C)n2)cc1 , RP-LC retention time read as 1270

Notebook: CC(CNC(=O)c1cc2sc(Cl)cc2n1C)c1ccccc1 (centres undefined) , RP-LC retention time read as 1110

Notebook: O=C(Nc1ccc2c(c1)OCCO2)c1coc2ccccc12 , RP-LC retention time read as 826

Notebook: COc1ccc(C(=O)N2CCCCC2c2nncn2CC2CC2)cc1F (centres undefined) , RP-LC retention time read as 718

Notebook: CCc1noc(-c2ccc(-n3cnc(C(=O)NCC(C)C)c3)nc2)n1 , RP-LC retention time read as 814

Notebook: CCN(CC)CCNC(=O)c1cc(S(=O)(=O)N2CCCCC2)ccc1Cl , RP-LC retention time read as 637

Notebook: O=C(Nc1cccc(OCc2nnc(-c3ccccc3)o2)c1)C1CCCC1 , RP-LC retention time read as 943

Notebook: CCNC(=O)C1CCN(S(=O)(=O)c2c(C)[nH]c(C)c2C(=O)N2CCCCC2)CC1 , RP-LC retention time read as 624

Notebook: O=C(Nc1nc(-c2ccc(Cl)cc2Cl)cs1)c1ccno1 , RP-LC retention time read as 981

Notebook: CCOc1cccc(-c2noc(Cn3ncn4nc(-c5ccc(F)cc5)cc4c3=O)n2)c1 , RP-LC retention time read as 860

Notebook: Cc1ccc(-c2nnc(COc3cccc(NC(=O)c4n[nH]c5c4CCCC5)c3)o2)cc1 , RP-LC retention time read as 1010

Notebook: COC(=O)c1cc(S(=O)(=O)N2CCCC2C(=O)Nc2cccc(C(F)(F)F)c2)cn1C (centres undefined) , RP-LC retention time read as 971

Notebook: CC(=O)N1C[C@@H]2CCCN3CCC[C@@H]([C@H]23)[C@H]1CCCC(=O)NCC1CC1 , RP-LC retention time read as 562
